Values from patent US6458585B1

- Test system: adherent PBMNC
- test-method-notes: S100 immunohistochemistry of plastic adherent cells cultured with non-cytokine additives
- Assay type: cell-based, human
- test-conditions: Day 7, with GM-CSF present
Entries annotated with measured % S100+

[
  {
    "molecule": "CCCCC/C=C\\C/C=C\\CCCCCCCC(=O)O [Linoleic Acid]",
    "tested-system": "adherent PBMNC",
    "% S100+ [%]": 26.00
  },
  {
    "molecule": "CCCC(=O)Nc1ncnc2c1ncn2[C@@H]1O[C@@H]2COP(=O)(O)O[C@H]2[C@H]1OC(=O)CCC [dibutyryl cAMP, Dibutyryl cAMP]",
    "tested-system": "adherent PBMNC",
    "% S100+ [%]": 14.00
  },
  {
    "molecule": "CCCCCCCCCCCCCC(=O)O[C@@H]1[C@@H](C)[C@@]2(O)[C@@H](C=C(CO)C[C@]3(O)C(=O)C(C)=C[C@@H]23)[C@@H]2C(C)(C)[C@]12OC(C)=O [PMA, Phorbol Myristate Acetate]",
    "tested-system": "adherent PBMNC",
    "% S100+ [%]": 26.50
  },
  {
    "molecule": "C=C1CCC(O)CC1=CC=C1CCCC2(C)C1CCC2C(C)CCCC(C)C (centres unmarked) [Vit D3]",
    "tested-system": "adherent PBMNC",
    "% S100+ [%]": 39.00
  },
  {
    "molecule": "CC1=C(/C=C/C(C)=C/C=C/C(C)=C/C(=O)O)C(C)(C)CCC1 [Ret Acid]",
    "tested-system": "adherent PBMNC",
    "% S100+ [%]": 14.00
  },
  {
    "molecule": "[F-].[Na+] [NaF, Sodium Fluoride]",
    "tested-system": "adherent PBMNC",
    "% S100+ [%]": 5.00
  },
  {
    "molecule": "Cc1c(C)c2c(c(C)c1O)CCC(C)(CCCC(C)CCCC(C)CCCC(C)C)O2 (mixture of isomers) [Vit E]",
    "tested-system": "adherent PBMNC",
    "% S100+ [%]": 19.00
  },
  {
    "molecule": "CNc1ccc2oc(CC3OC4(CCC3C)OC(C(C)C(=O)c3ccc[nH]3)C(C)CC4C)nc2c1C(=O)O (centres unmarked) [Ca ++ Iono]",
    "tested-system": "adherent PBMNC",
    "% S100+ [%]": 26.50
  },
  {
    "molecule": "Nc1ncnc2c1ncn2[C@@H]1O[C@@H]2COP(=O)(O)O[C@H]2[C@H]1O [cAMP, Cyclic Adenosine Monophosphate]",
    "tested-system": "adherent PBMNC",
    "% S100+ [%]": 47.00
  },
  {
    "molecule": "Cn1c(=O)c2[nH]cnc2n(C)c1=O [theophylline, Theophylline]",
    "tested-system": "adherent PBMNC",
    "% S100+ [%]": 11.00
  },
  {
    "molecule": "CCCCC[C@H](O)/C=C/[C@H]1[C@H](O)CC(=O)[C@@H]1CCCCCCC(=O)O [PGE, Prostaglandin E1]",
    "tested-system": "adherent PBMNC",
    "% S100+ [%]": 26.50
  }
]

* * *

- Tested on: T cells
- test-method-notes: Allogeneic MLR with bulk PBMNC cultures grown with non-cytokine additives
- Assay type: cell-based, human
- test-conditions: Day 7, Cell Culture:T cell Ratio 1:1
- Description: MLR's were setup using T cells as responders and dendritic cell enriched cultures as antigen presenters. […] Plates were harvested onto glass fiber filter strips using a cell harvester. Discs were placed into scintillation vials containing scintillation cocktail and samples were counted using a beta radiation counter. […] The functional capacity of cultured cells to induce T cell proliferation was measured in an allogeneic MLR. […]
measured-parameter: Allogeneic MLR. Increase Over Background Proliferation

[
  {
    "compound": "Cc1c(C)c2c(c(C)c1O)CCC(C)(CCCC(C)CCCC(C)CCCC(C)C)O2 (mixture of isomers)",
    "tested-system": "T cells",
    "endpoint-value": 6.3
  },
  {
    "compound": "CCCCC/C=C\\C/C=C\\CCCCCCCC(=O)O",
    "tested-system": "T cells",
    "endpoint-value": 6.1
  },
  {
    "compound": "C=C1CCC(O)CC1=CC=C1CCCC2(C)C1CCC2C(C)CCCC(C)C (stereo not shown)",
    "tested-system": "T cells",
    "endpoint-value": 6.9
  },
  {
    "compound": "CNc1ccc2oc(CC3OC4(CCC3C)OC(C(C)C(=O)c3ccc[nH]3)C(C)CC4C)nc2c1C(=O)O (stereo not shown)",
    "tested-system": "T cells",
    "endpoint-value": 4.8
  }
]

* * *

- Tested on: Bulk PBMNC
- test-method-notes: Morphologically identified dendritic cells in bulk PBMNC cultures with non-cytokine additives
- Assay type: cell-based, human
- test-conditions: Day 7
measured-parameter: % DC (%)

[
  {
    "compound": "CNc1ccc2oc(CC3OC4(CCC3C)OC(C(C)C(=O)c3ccc[nH]3)C(C)CC4C)nc2c1C(=O)O (stereo not shown)",
    "tested-system": "Bulk PBMNC",
    "measured-parameter": "% DC",
    "endpoint-value": 7.00
  },
  {
    "compound": "CCCCC/C=C\\C/C=C\\CCCCCCCC(=O)O",
    "tested-system": "Bulk PBMNC",
    "measured-parameter": "% DC",
    "endpoint-value": 5.00
  },
  {
    "compound": "Cc1c(C)c2c(c(C)c1O)CCC(C)(CCCC(C)CCCC(C)CCCC(C)C)O2 (mixture of isomers)",
    "tested-system": "Bulk PBMNC",
    "measured-parameter": "% DC",
    "endpoint-value": 4.00
  },
  {
    "compound": "C=C1CCC(O)CC1=CC=C1CCCC2(C)C1CCC2C(C)CCCC(C)C (stereo not shown)",
    "tested-system": "Bulk PBMNC",
    "measured-parameter": "% DC",
    "endpoint-value": 6.50
  }
]

* * *

- System: adherent PBMNC
- test-method-notes: DC morphology (Wright-Geimsa) of plastic adherent cells cultured with non-cytokine additives
- Assay type: cell-based, human
- test-conditions: Day 7, with GM-CSF present
Kindly apply the following: Fulfilled if % DC is less than 5%, Not fulfilled in every other case.

[
  {
    "compound": "[F-].[Na+] [NaF, Sodium Fluoride]",
    "group": "Fulfilled"
  },
  {
    "compound": "CC1=C(/C=C/C(C)=C/C=C/C(C)=C/C(=O)O)C(C)(C)CCC1",
    "group": "Fulfilled"
  },
  {
    "compound": "CCCCC/C=C\\C/C=C\\CCCCCCCC(=O)O",
    "group": "Not fulfilled"
  },
  {
    "compound": "CNc1ccc2oc(CC3OC4(CCC3C)OC(C(C)C(=O)c3ccc[nH]3)C(C)CC4C)nc2c1C(=O)O (centres unmarked)",
    "group": "Fulfilled"
  }
]

* * *

- Test system: adherent PBMNC
- test-method-notes: Cell counts and viability of plastic adherent cells cultured with non-cytokine additives in polystyrene plates
- Type: cell-based, human
- test-conditions: Day 4, with GM-CSF present

[
  {
    "compound": "CCCC(=O)Nc1ncnc2c1ncn2[C@@H]1O[C@@H]2COP(=O)(O)O[C@H]2[C@H]1OC(=O)CCC",
    "unit-abbreviation": "E + 05",
    "TOTAL CELLS": 1.74
  },
  {
    "compound": "Cn1c(=O)c2[nH]cnc2n(C)c1=O",
    "unit-abbreviation": "E + 05",
    "TOTAL CELLS": 1.34
  },
  {
    "compound": "CCCCC[C@H](O)/C=C/[C@H]1[C@H](O)CC(=O)[C@@H]1CCCCCCC(=O)O [PGE, Prostaglandin E1]",
    "unit-abbreviation": "E + 05",
    "TOTAL CELLS": 2.35
  },
  {
    "compound": "CCCCC/C=C\\C/C=C\\CCCCCCCC(=O)O",
    "unit-abbreviation": "E + 05",
    "TOTAL CELLS": 1.41
  }
]

* * *

Quick reference: % DC of the listed items.
- Test system: adherent PBMNC
- test-method-notes: DC morphology (Wright-Geimsa) of plastic adherent cells cultured with non-cytokine additives
- Type: cell-based, human
- test-conditions: Day 7, without GM-CSF

[
  {
    "molecule": "CC1=C(/C=C/C(C)=C/C=C/C(C)=C/C(=O)O)C(C)(C)CCC1 [Ret Acid]",
    "tested-system": "adherent PBMNC",
    "% DC": "0.00%"
  },
  {
    "molecule": "CCCC(=O)Nc1ncnc2c1ncn2[C@@H]1O[C@@H]2COP(=O)(O)O[C@H]2[C@H]1OC(=O)CCC [dibutyryl cAMP, Dibutyryl cAMP]",
    "tested-system": "adherent PBMNC",
    "% DC": "0.00%"
  },
  {
    "molecule": "CNc1ccc2oc(CC3OC4(CCC3C)OC(C(C)C(=O)c3ccc[nH]3)C(C)CC4C)nc2c1C(=O)O (stereo not shown) [Ca + + Iono]",
    "tested-system": "adherent PBMNC",
    "% DC": "6.00%"
  },
  {
    "molecule": "CCCCC[C@H](O)/C=C/[C@H]1[C@H](O)CC(=O)[C@@H]1CCCCCCC(=O)O [PGE, Prostaglandin E1]",
    "tested-system": "adherent PBMNC",
    "% DC": "0.00%"
  }
]
